Molecular target: T1, 4H340-AA
T1 chain: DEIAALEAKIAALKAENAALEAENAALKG
Assay: two-hybrid library CCmax;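 also: natural log of median RNA to DNA barcode read ratio; higher means stronger binding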
Settings: mean of both orientations
REPORTED PROPERTY: interaction score

Consider the binder shown here: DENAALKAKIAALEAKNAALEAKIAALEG [4H1845-AA] What is its recorded interaction score?
-1.97

Consider the binder shown here: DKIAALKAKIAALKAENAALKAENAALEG [4H2907-AA] What is its recorded interaction score?
1.31

Consider the binder shown here: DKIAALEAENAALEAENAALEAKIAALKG [4H2198-AA] What is its recorded interaction score?
-1.2

Consider the binder shown here: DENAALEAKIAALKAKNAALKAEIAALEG [4H1401-AA] What is its recorded interaction score?
-1.93

Consider the binder shown here: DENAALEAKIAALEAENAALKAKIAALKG [4H1310-AA] What is its recorded interaction score?
-1.45

Consider the binder shown here: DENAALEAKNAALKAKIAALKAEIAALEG [4H1513-AA] What is its recorded interaction score?
-1.57

Consider the binder shown here: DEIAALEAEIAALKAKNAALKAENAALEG [4H123-AA] What is its recorded interaction score?
1.64

Okay, now this binder:
Consider the binder shown here: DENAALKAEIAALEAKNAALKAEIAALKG [4H1594-AA] What is its recorded interaction score?
0.908
